systemName: Transient receptor potential cation channel subfamily V member 1 (Homo sapiens)
testDetails: TRPV1 channel agonists by patch clamp, confirmation, automated patch clamp, HEK293 cells (AID 588633)
testSettings: TRPV1-HEK293, automated patch clamp current; at 10 µM; stronger effect = higher value
measuredAttribute: activation (%)

1) CCc1ccc2oc(C(=O)Nc3cccnc3)c(C)c2c1; 4.84
2) O=C(C1=NOC(CNc2ncc(C(F)(F)F)cc2Cl)C1)N1CCOCC1 (stereo not given); 157
3) COc1ccc(Cn2nc(-c3ccccc3)c(N3CCCCC3)cc2=O)cc1; 143
4) Cc1cc(C(=O)N/N=C/c2cccc([N+](=O)[O-])c2)c(C)n1-c1ccccc1; 76.2
5) O=C(Nc1cccc([N+](=O)[O-])c1)c1ccc(-c2ccccc2)cc1; 5.26

====

systemName: Transient receptor potential cation channel subfamily V member 1 (Homo sapiens)
testDetails: TRPV1 channel agonists by patch clamp, confirmation, automated patch clamp, HEK293 cells (AID 588633)
testSettings: TRPV1-HEK293, automated patch clamp current; at 10 µM; stronger effect = higher value
measuredAttribute: activation (%)

1. Cc1ncsc1CCC(=O)N1CCCC(Nc2ccc(C(C)C)cc2)C1 (stereo unspecified); 335
2. CC(C)(C)c1ccc(/C=C/C(=O)N2CCCCC2)cc1; 420
3. CC(C)c1ccc(CNNC(=O)c2ccccc2)cc1; 156
4. O=C(Nc1ccc(C(F)(F)F)cc1)c1ccc2ncsc2c1; 145
5. CC(C)c1ccc(NC(=O)N2CCC(c3nc4ccccc4o3)CC2)cc1; 135
6. CCc1ccc(/C=C2\SC(N3CCOCC3)=NC2=O)cc1; 199
7. CCC(C)Sc1cccc(-c2nc3ccc(Cl)cn3c2NCc2ccccc2)c1 (stereo unspecified); 10.9
8. O=C(Nc1ccc(N2CCCCCC2)cc1)c1cccc(S(=O)(=O)N2CCOCC2)c1; 197
9. Oc1ccccc1N=Cc1c(O)ccc2ccccc12; 10.6
10. Cc1ccc(Cn2nc(C(=O)Nc3ccc(Br)cc3)cc2C)cc1; 26.9
11. O=C(C1=C[C@@H](c2ccccc2)C[C@@H](OCc2ccc(CO)cc2)O1)N1CCCCCCC1; 323

====

systemName: Transient receptor potential cation channel subfamily V member 1 (Homo sapiens) (UniProt Q8NER1)
Sequence (Q8NER1 whole entry, looked up): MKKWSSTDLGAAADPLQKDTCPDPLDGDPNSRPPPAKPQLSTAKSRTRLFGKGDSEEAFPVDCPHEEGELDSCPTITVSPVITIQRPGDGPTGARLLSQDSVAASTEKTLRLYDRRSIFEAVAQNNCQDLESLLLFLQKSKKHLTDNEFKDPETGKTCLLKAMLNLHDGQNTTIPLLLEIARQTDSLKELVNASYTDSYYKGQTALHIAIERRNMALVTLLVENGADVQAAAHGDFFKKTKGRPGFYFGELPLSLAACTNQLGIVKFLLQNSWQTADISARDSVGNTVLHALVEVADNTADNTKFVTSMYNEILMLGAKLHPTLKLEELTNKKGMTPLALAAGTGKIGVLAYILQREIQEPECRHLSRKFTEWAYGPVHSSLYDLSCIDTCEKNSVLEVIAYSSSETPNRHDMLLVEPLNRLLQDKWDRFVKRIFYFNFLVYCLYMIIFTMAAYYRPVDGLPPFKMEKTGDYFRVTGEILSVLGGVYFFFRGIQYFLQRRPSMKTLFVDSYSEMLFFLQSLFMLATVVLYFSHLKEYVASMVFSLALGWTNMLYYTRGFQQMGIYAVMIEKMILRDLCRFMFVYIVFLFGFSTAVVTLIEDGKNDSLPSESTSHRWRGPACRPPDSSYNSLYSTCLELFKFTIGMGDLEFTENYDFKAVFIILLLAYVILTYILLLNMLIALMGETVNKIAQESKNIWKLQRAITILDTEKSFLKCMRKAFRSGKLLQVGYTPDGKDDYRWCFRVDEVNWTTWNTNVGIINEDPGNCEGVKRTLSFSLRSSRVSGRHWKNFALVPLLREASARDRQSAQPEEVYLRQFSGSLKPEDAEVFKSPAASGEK
testDetails: TRPV1 channel agonists by patch clamp, confirmation, automated patch clamp, HEK293 cells (AID 588633)
testSettings: TRPV1-HEK293, automated patch clamp current; at 10 µM; stronger effect = higher value
Condition met means recorded activation is 60% or above; Condition not met means it is below 60%.

1) Cc1ccc(S(=O)(=O)Cc2ccc(C(=O)NCCc3ccccc3)o2)cc1; Condition not met
2) CC(C)c1ccc(NCCC(=O)c2cccs2)cc1; Condition not met
3) CCOC(=O)c1sc(-c2ccccc2)cc1NC(=O)Nc1ccccc1; Condition not met
4) CC(C)(C)c1ccc(OCCNC(=O)Cc2ccc(F)cc2)cc1; Condition not met
5) CC(C)c1ccc(NC2CCCN(C(=O)c3ccco3)C2)cc1 (stereo unspecified); Condition met
6) CCCSc1ccc(-c2nn(-c3ccccc3)cc2/C=C(/C#N)C(=O)N2CCOCC2)cc1; Condition not met
7) Cc1cccn2c(=O)c3cc(C(=O)NCC4CCCO4)c(=N)n(Cc4ccc(F)cc4)c3nc12 (stereo unspecified); Condition met
8) O=C(CCc1ccccc1)N1CCCC(Nc2ccc(F)cc2)C1 (stereo unspecified); Condition met
9) CC(=O)c1ccc(N2CCN(C(=O)Nc3ccc(C(C)C)cc3)CC2)cc1; Condition met
10) COc1ccc(Nc2ncnc3c2oc2ccccc23)cc1; Condition not met

====

systemName: Transient receptor potential cation channel subfamily V member 1 (Homo sapiens)
testDetails: TRPV1 channel agonists by patch clamp, confirmation, automated patch clamp, HEK293 cells (AID 588633)
testSettings: TRPV1-HEK293, automated patch clamp current; at 10 µM; stronger effect = higher value
measuredAttribute: activation (%)

1. COc1ccc(NC2c3ccccc3C(=O)N2Cc2ccc3c(c2)OCO3)cc1 (stereo not given); 330
2. COc1ccc(C(=O)Nc2ccc(C3=NNC(=O)CC3C)cc2NC(=O)c2ccc(OC)cc2)cc1 (stereo not given); 51.6
3. O=C(NCc1ccccc1)[C@@H]1C[C@H]1[C@@H](NP(=O)(c1ccccc1)c1ccccc1)c1ccccc1; 97.1
4. COC(=O)c1[nH]c2ccc(C)cc2c1NC(=O)CN1CCCC(C)(C)C1; 61.2
5. Cc1ccc(C(=O)Nc2ccc(SC(F)F)cc2)s1; 54.6
6. Cc1ccc(N2CCN(C(=O)N3CCOCC3)CC2)c(C)c1; 33.5
7. CCC(C)(C)c1ccc(OCC(=O)Nc2ccncc2)cc1; 440
8. Cc1ccc(Nc2ncnc3c2oc2ccccc23)cc1; 200
9. CCC(C)Sc1cccc(-c2nc3cc(C)ccn3c2NCc2ccccc2)c1 (stereo not given); 63.1
10. CCc1ccc(NC(=O)Nc2ccc3c(c2)N(C)C(=O)CS3)cc1; 28.7
11. O=C(Nc1ccccc1)c1cc(-c2ccccc2Cl)no1; 40.5
12. CC1CCCN(c2ccc(C(=O)Nc3cccnc3)cc2[N+](=O)[O-])C1 (stereo not given); 467
13. CCCCCC1CCC(C(=O)N2CCOCC2)CC1 (stereo not given); 57
14. Cc1cc2c(NC(=O)Nc3ccc(C(C)(C)C)cc3)cccc2nn1; 200
15. CS(=O)(=O)N1CCc2cc(C(=O)Nc3ccc(Br)cc3)ccc21; 5.79
16. COc1ccc(CNC(=S)NCc2ccc(Cl)cc2)cc1OC; 272
17. CC(=O)Nc1ccc(N=Cc2c(O)ccc3ccccc23)cc1; 30
18. CC1CCN(C(=O)/C=C/c2ccc(C(C)(C)C)cc2)CC1; 12.5
19. O=C(NCc1cccnc1)C1CCC(c2ccc(Cl)cc2)CC1 (stereo not given); 196
20. CC(C)(C)c1ccc2c(c1)OC(C(=O)N/N=C\c1ccncc1)CO2 (stereo not given); 182
21. CCCn1c(SC(C)C(=O)N2CCOCC2)nc2ccc(Br)cc2c1=O (stereo not given); 253
22. Cc1cc(C(=O)NCCC2=CCCCC2)ccc1[N+](=O)[O-]; 369
23. CC(=O)c1ccc(NC(=O)N2CCN(c3ccc(C)cc3)C(C)C2)cc1 (stereo not given); 155
24. Cc1cc2oc(C(=O)Nc3cccnc3)c(C)c2cc1C; 6.35
25. CCCCCCCCC(=O)NCc1ccc(O)c(OC)c1; 43.2
26. CC(C)CCSc1nc(N2CCOCC2)c2c(c1C#N)CC(C)(C)OC2; 93.7
27. CCOC(=O)[C@H]1[C@H]2COc3ccc(Cl)cc3[C@@H]2N2C(=O)c3ccc(C)cc3NC(=O)[C@@]12C; 34
28. CC(OC(=O)CC1CCCCC1)C(=O)Nc1ccc(F)cc1 (stereo not given); 77.3
29. CCc1nc(Nc2ccc3c(c2)OCCO3)c2oc3ccccc3c2n1; 111
30. CCN(CCNC(=O)c1ccc(C#N)cc1)c1cccc(C)c1; 427
31. CCCOc1ccc(/C=C/C(=O)N2CCOCC2)cc1; 338
32. CCN(c1ccc(NC(=O)c2ccc(Cl)nc2)cc1)C(C)C; 291
33. Cc1nc(Nc2cccc(Cl)c2)c2oc3ccccc3c2n1; 34.8
34. Cc1ccc(C2=NN(C)c3nc4ccccc4n3C2)cc1; 105
35. CCCCCCC1CCC(C(=O)N2CCOCC2)CC1 (stereo not given); 17.2
36. CC(C)(C)c1ccc(C(=O)Nc2ccc3c(c2)C(=O)NC3=O)cc1; 3.59
37. CC(C)(C)c1ccc(/C=C/C(=O)Nc2cccnc2)cc1; 131
38. Cc1ccc2nc(-c3ccccn3)cc(C(=O)Nc3ccc4c(c3)OCO4)c2c1; 1.55
39. Cc1ccc(/C=N/Nc2nc(N3CCCCC3)nc(N3CCCCC3)n2)o1; 148
40. CC(C)c1ccc(/C=C/C(=O)N2CCOCC2)cc1; 242
41. NS(=O)(=O)c1ccc(NC(=O)c2ccc3c(c2)CCCC3)cc1; 23.2
42. Cc1ccc(Nc2nc(C)nc3c2oc2ccccc23)cc1; 317
43. Cc1ccc(NC(=O)c2cc3c(s2)CCCC3)cc1; 402
44. CCc1nc(Nc2ccccc2)c2oc3ccccc3c2n1; 128
45. CC(C)(C)c1ccc(/C=N/OCC(=O)NCc2ccc(F)cc2)cc1; 9.95

====

systemName: Transient receptor potential cation channel subfamily V member 1 (Homo sapiens)
testDetails: TRPV1 channel agonists by patch clamp, confirmation, automated patch clamp, HEK293 cells (AID 588633)
testSettings: TRPV1-HEK293, automated patch clamp current; at 10 µM
Calls of active or inactive are those of the source.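 The calls were made as follows: active = TRPV1 channel activation above 50%; inactive = activation of 50% or less.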
Outcome codes: active, inactive

1) O=C(/C=C\c1cn(-c2ccccc2)nc1-c1ccc2c(c1)OCCO2)N1CCOCC1; active
2) CC(=O)c1ccc(Nc2ncnc3c2oc2ccccc23)cc1; active
3) O=C(COC(=O)C12CC3CC(CC(C3)C1)C2)Nc1ccc2[nH]c(=O)[nH]c2c1; inactive
4) CC(C)(C)c1ccc(/C=C/C(=O)Nc2ccncc2)cc1; active
5) O=C(/C=C\c1cn(-c2ccccc2)nc1-c1cccs1)N1CCOCC1; active
6) CCN(CC)S(=O)(=O)c1ccc(/C=C/C(=O)Nc2ccc(N3CCOCC3)cc2)cc1; inactive
7) CCC(C)Sc1ccc(-c2nc3ccc(C)cn3c2NCc2ccccc2)cc1OC (stereo not given); inactive
8) CC(C)(C)c1cc(CCC(=O)NCc2ccncc2)cc(C(C)(C)C)c1O; active
9) O=C(c1cc(-c2ccc(Cl)cc2Cl)on1)N1CCOCC1; active
10) CC(C)(C)c1ccc(NC(=O)N2CCCN(c3ccc([N+](=O)[O-])cn3)CC2)cc1; active

src = PubChem BioAssay AID588633
